System: K-562 leukemia
Test: NCI tumour cell line growth inhibition, 48 h; in the data active = GI50 below about 0.43 µM; inactive = the rest
Respond only with the outcome that fits, drawn from True = active, False = inactive

COMPOUND	CAT
O=C(CN1CCN(c2ccc(Cl)cc2)CC1)N1CCN(c2nnc(-c3ccccc3)c(-c3ccccc3)n2)CC1	False
CCN1CCN(C(=O)[C@]23CCC(C)(C)C[C@@H]2C2=CC[C@@H]4[C@@]5(C)C/C(=C/c6cccnc6)C(=O)C(C)(C)[C@@H]5CC[C@@]4(C)[C@]2(C)CC3)CC1	False
CC[C@]12CCCN3CC[C@]4(C(=C(C(=O)OC)C1)Nc1ccccc14)[C@@H]32	False
Nc1c(C(=O)Nc2ccccc2)sc2nc3c(cc12)CCCC3	False
CC(C)[C@@H]1CC[C@@H]2[C@@H]1[C@H](OC(=O)/C=C/c1ccccc1)[C@]1(C(C)C)C[C@@H](OC(=O)CO)[C@@]2(C)O1	False

# next compound below
IN: What did this assay record as the result for COc1ccc(Nc2ncccc2C(=O)NCc2cn(Cc3cccc(Oc4ccccc4)c3)nn2)cc1 ?
OUT: False

* * *

Reported TGI values for a set of molecules
System: HOP-92 NSCLC
Test: NCI tumour cell line growth inhibition, 48 h
Value expressed in µM; do not type the unit.

IN: Hello, please tell me recorded TGI for this one: Cc1ccc(C)c(NC(=O)C(Cc2c[nH]c3ccccc23)NC(=O)OCc2ccccc2)c1 (stereo not given)
OUT: 57.5

* * *

Test system: NCI/ADR-RES ovarian
Test: NCI tumour cell line growth inhibition, 48 h
The label depends only on TGI: Fulfilled if it is at least 20 µM, Not fulfilled if it is smaller.

>>> df
                                   compound        cat
0  O=C(CN1CCN(c2ccc(Cl)cc2)CC1)N1CCN(c2nnc(-c3ccccc3)c(-c3ccccc3)n2)CC1  Fulfilled
1           O=C1c2ccccc2C(=O)c2c1ccc1c2OCO1  Fulfilled
2         CCc1n[nH]c(=O)n1NC(=O)/C=C\C(=O)O  Fulfilled

IN: Evaluate COc1cc(/C=C(\C#N)c2ccccn2)cc(Br)c1O : TGI at minimum 20 µM?
OUT: Fulfilled

IN: Evaluate [N-]=[N+]=NC1=C(c2ccccc2)C(=O)c2cccc3cccc1c23 : TGI at minimum 20 µM?
OUT: Fulfilled

IN: Evaluate C/C(=N\Nc1nc2ccccc2o1)c1ccncn1 : TGI at minimum 20 µM?
OUT: Not fulfilled

* * *

Reported TGI values for a set of compounds
Tested on: HT29 colon
Assay: NCI tumour cell line growth inhibition, 48 h

                                   compound    result
0                     CCOC(=O)/C=C/c1ccccn1  > 100 µM
1  COc1ccc(-c2nnc(CCCCCCCCc3nnc(-c4ccc(OC)cc4)o3)o2)cc1  > 100 µM
2  COC(=O)C(Cc1nc2ccccc2[nH]c1=O)C(=O)C(=O)Nc1ccc(OC)cc1[N+](=O)[O-] (stereo not given)  > 100 µM

IN: Hello, please tell me recorded TGI for this one: Cc1ccccc1/C=C1\CN(C(=O)OC(C)(C)C)C/C(=C\c2ccccc2C)C1=O
OUT: 7.61 µM

IN: Hello, please tell me recorded TGI for this one: Cc1n[nH]c(=O)n1N1C(=O)c2ccccc2C1=O
OUT: > 100 µM

IN: Hello, please tell me recorded TGI for this one: CCc1n[nH]c(=O)n1NC(=O)/C=C\C(=O)O
OUT: > 100 µM

IN: Hello, please tell me recorded TGI for this one: O=C(c1ccccc1)c1c(CNCc2ccccc2)n(C(=O)c2ccccc2)c2ccccc12
OUT: > 100 µM

IN: Hello, please tell me recorded TGI for this one: C/C(=N/N)c1ccc2[nH]c3c(C)cc([N+](=O)[O-])c(C)c3c2c1
OUT: 90.1 µM

IN: Hello, please tell me recorded TGI for this one: Cc1nc2c(ncn2CCO)c(=O)[nH]1
OUT: > 100 µM

* * *

Reported TGI values for a set of compounds
Tested on: MCF7 breast
Experiment: NCI tumour cell line growth inhibition, 48 h
Value expressed in µM; do not type the unit.

A selection of reference data follows.
COMPOUND	TGI / µM
COc1cc2c3c(c4c5ccccc5[nH]c4c2c(OC)c1OC)C(=O)N(CCN1CCCCC1)C3=O	3.09
Nc1nc2c(c3cnccc13)C(c1cccc(Cl)c1)Cc1cnccc1-2 (stereo not given)	11.6

IN: Hello, please tell me recorded TGI for this one: O=S(=O)(NCCCNc1cc(-c2cn(-c3ccccc3)nc2-c2cccc(O)c2)ccn1)c1ccc(Cl)cc1
OUT: 5.01

* * *

Tested on: LXFL 529 NSCLC
Test: NCI tumour cell line growth inhibition, 48 h
EXPERIMENTAL_READOUT: TGI

IN: Hello, please tell me recorded TGI for this one: CC1CCC23COC(=O)C2C(O)CCC3C1(C)CC(O)c1ccoc1 (stereo unspecified)
OUT: > 100 µM

* * *

Test system: IGROV1 ovarian
Assay: NCI tumour cell line growth inhibition, 48 h
EXPERIMENTAL_READOUT: TGI (µM)
Value expressed in µM; do not type the unit.

IN: Hello, please tell me recorded TGI for this one: COc1ccc(CNc2nc(NCc3ccc(OC)cc3)c3n[nH]c(C(C)C)c3n2)cc1
OUT: 13.7

IN: Hello, please tell me recorded TGI for this one: Cc1cc2c(cc1C)[n+](=O)c(C(=O)/C=C/c1ccccc1Cl)c(C)n2[O-]
OUT: 37.9

* * *

System: NCI-H226 lung
Assay: NCI tumour cell line growth inhibition, 48 h
Reported TGI values for a set of compounds

A selection of reference data follows.
>>> df
                                   compound     result
0  NC[C@@](O)(c1ccc(Cl)cc1)c1ccc(-c2cn[nH]c2)cc1   > 100 µM
1  COc1cc2c(cc1O)C(C)Cc1cc3c(cc1N(C)CC2)OCO3 (stereo not given)    19.3 µM
2  COc1cc2c3c(n(CCCCl)c(=O)c2cc1OC)-c1ccc(C#N)cc1C3=O    94.9 µM
3  COC(=O)C(Cc1nc2ccccc2[nH]c1=O)C(=O)C(=O)Nc1ccc(OC)cc1[N+](=O)[O-] (stereo not given)   > 100 µM
4  CCC/C(=N\NC(=O)c1cc2ccccc2cc1O)C(CC)C(=O)CCC(=O)N(Cc1ccccc1)Cc1ccccc1 (stereo not given)   > 100 µM
5                   Cc1cccc(NC(=O)CC#N)c1Cl   > 100 µM
6  CC[C@@]1(O)C(=O)OCc2c1cc1n(c2=O)Cc2c-1nc1ccccc1c2/C=N/OC(C)(C)C  0.0355 µM
7  BrC12c3ccccc3Sc3ccccc3C1(Br)c1ccccc12 (stereo not given)    38.7 µM
8  COc1cc(C=O)c(-c2cc3c(cc2C=O)OCO3)c(OC)c1OC     280 µM
9   CN(C(=O)c1cccs1)C(=S)N1CCN(c2ccccc2)CC1   > 100 µM

IN: Hello, please tell me recorded TGI for this one: O=C1c2cccnc2C(=O)c2c1c(C(=O)OCCN1CCOCC1)c1ccccn21
OUT: 0.696 µM

IN: Hello, please tell me recorded TGI for this one: CCOC(=O)/C=C/c1ccccn1
OUT: > 100 µM

IN: Hello, please tell me recorded TGI for this one: CC1(C)OC(=S)N(c2ccccc2)C12C=Cc1cc3ccccc3cc1O2 (stereo not given)
OUT: > 100 µM

IN: Hello, please tell me recorded TGI for this one: CC(C)CC(=O)NS(=O)(=O)c1ccccc1
OUT: > 100 µM

IN: Hello, please tell me recorded TGI for this one: COc1ccc(C(=O)O)c(Cc2ccc3ccccc3c2)c1
OUT: > 100 µM

* * *

Record: GI50 reported on NCI-H460 lung.

A selection of reference data follows.
>>> df
                                   molecule  tested_system  experimental_readout   result
0  O=S(=O)(NCCCNc1cc(-c2cn(-c3ccccc3)nc2-c2cccc(O)c2)ccn1)c1ccc(Cl)cc1  NCI-H460 lung                  GI50  1680 nM
1  Cc1ccc(NC(=O)c2nc(S(C)=O)oc2-c2ccc(F)cc2)cc1Nc1nccc(-c2cccnc2)n1 (stereo not drawn)  NCI-H460 lung                  GI50  2090 nM

IN: With NCI-H460 lung as the test system, provide measured GI50 for this molecule: C/C(=N\NC(=O)c1ccncc1)c1ccc(O)cc1O
OUT: 5000 nM

* * *

Test system: A498 renal
Test: NCI tumour cell line growth inhibition, 48 h
EXPERIMENTAL_READOUT: TGI

>>> df
                              compound    result
0   C/C(=N\NC(=O)c1ccncc1)c1ccc(O)cc1O  > 100 µM
1  COC(=O)c1scc(N)c1-n1ccc(=O)[nH]c1=O  > 100 µM

// next item, TGI requested
IN: Hello, please tell me recorded TGI for this one: COC(=O)C1C2CCCN2OC1(C)CO (stereo not drawn)
OUT: > 100 µM
